experiment: qHTS assay to identify small molecule agonists of the retinoic acid receptor (RAR) signaling pathway (AID 1159553); settings: C3RL4 RARE luciferase reporter, agonist, 6 h; series mostly up to 73.3 µM
Results filed as inconclusive are left out. The source made the active and inactive calls. Calls follow the shape of the dose curve; as a rule, active = well fitted activation curve with a large enough effect in the repeat runs; inconclusive = weak or mixed curves, or effect the other way; inactive = no such curve, though single readings can be large or run the other way.
Pick from 1 = active, -1 = inactive when you respond.

> print(dat)
                                  compound  label.class
1  C#CCOC(C(=O)OCCN(C)C)(c1ccccc1)c1ccccc1           -1

Task item: Test call, this compound: C=CCOC(C)=O
Reply: 1

Task item: How about CNP(=O)(OC)Oc1ccc(C(C)(C)C)cc1Cl (centres undefined) ?
Reply: -1

Task item: What about this compound? CCCN(CCC)c1c([N+](=O)[O-])cc(S(C)(=O)=O)cc1[N+](=O)[O-]
Reply: -1

----------
assay: qHTS assay for identifying genotoxic compounds that show differential cytotoxicity against isogenic chicken DT40 cell lines with known DNA damage response pathways - wild type cell line (AID 743012); conditions: DT40 wild type chicken cells viability, CellTiter-Glo, 40 h; series mostly up to 68.4 µM; also: nearly all actives have a fitted effect of over 60% in size
Inconclusive results are not listed. Calls of active or inactive are those of the source. Calls come from the whole dose curve; as a rule, active = well fitted cell-killing curve with a large enough effect in the repeat runs; inconclusive = weak or mixed curves, or effect the other way; inactive = no such curve, though single readings can be large or run the other way.
Entry note: the call must match one of 1.0 for active, 0.0 for inactive

Before answering, review these 6 worked examples.
> print(dat)
                                   molecule  label.class
1      COP(=S)(OC)Oc1ccc([N+](=O)[O-])cc1Cl          0.0
2  COC(C)(C)CCC[C@H](C)C/C=C/C(C)=C/C(=O)OC(C)C          1.0
3                                 Cl/C=C\Cl          0.0
4                                 CCCCCCC#N          0.0
5                    O=C(Nc1ccccc1)Nc1cnns1          1.0
6                                 C=CC(C)=O          0.0

Now turn to the next compound.
Task item: For this compound, state the assay outcome: Cc1ccc2ccccc2c1
Reply: 0.0

----------
test: qHTS assay for identifying genotoxic compounds that show differential cytotoxicity against isogenic chicken DT40 cell lines with known DNA damage response pathways - Rad54/Ku70 mutant cell line (AID 743015); settings: DT40 Rad54/Ku70 mutant viability, CellTiter-Glo, 40 h; series mostly up to 66.8 µM; also: nearly all actives have a fitted effect of over 60% in size
Records with an inconclusive call do not appear. The source made the active and inactive calls. The call rests on the fitted dose curve; in most records, active means well fitted cell-killing curve with a large enough effect in the repeat runs; inconclusive means weak or mixed curves; inactive means no such curve, though single readings can be large or run the other way.
Choose one outcome from this list and give only that: yes (active), no (inactive)

> print(dat)
                             compound  label.class
1                  O=C(CBr)OCc1ccccc1           no
2  COc1ccc(-c2ccccc2)cc1NNC(=O)OC(C)C          yes

Task item: Please indicate how the test categorized O=C(O)C(F)(F)C(F)(F)C(F)(F)C(F)(F)C(F)(F)C(F)(F)C(F)(F)C(F)(F)C(F)(F)C(F)(F)F .
Reply: no

Task item: Record: c1ccc(C2CC2)c(OCC2=NCCN2)c1
Reply: no

Task item: Also need CNP(=O)(OC)Oc1ccc(C(C)(C)C)cc1Cl (stereo not given) , thanks.
Reply: yes
